target: Proto-oncogene tyrosine-protein kinase receptor Ret (Homo sapiens, UniProt P07949)
Sequence (P07949 whole entry): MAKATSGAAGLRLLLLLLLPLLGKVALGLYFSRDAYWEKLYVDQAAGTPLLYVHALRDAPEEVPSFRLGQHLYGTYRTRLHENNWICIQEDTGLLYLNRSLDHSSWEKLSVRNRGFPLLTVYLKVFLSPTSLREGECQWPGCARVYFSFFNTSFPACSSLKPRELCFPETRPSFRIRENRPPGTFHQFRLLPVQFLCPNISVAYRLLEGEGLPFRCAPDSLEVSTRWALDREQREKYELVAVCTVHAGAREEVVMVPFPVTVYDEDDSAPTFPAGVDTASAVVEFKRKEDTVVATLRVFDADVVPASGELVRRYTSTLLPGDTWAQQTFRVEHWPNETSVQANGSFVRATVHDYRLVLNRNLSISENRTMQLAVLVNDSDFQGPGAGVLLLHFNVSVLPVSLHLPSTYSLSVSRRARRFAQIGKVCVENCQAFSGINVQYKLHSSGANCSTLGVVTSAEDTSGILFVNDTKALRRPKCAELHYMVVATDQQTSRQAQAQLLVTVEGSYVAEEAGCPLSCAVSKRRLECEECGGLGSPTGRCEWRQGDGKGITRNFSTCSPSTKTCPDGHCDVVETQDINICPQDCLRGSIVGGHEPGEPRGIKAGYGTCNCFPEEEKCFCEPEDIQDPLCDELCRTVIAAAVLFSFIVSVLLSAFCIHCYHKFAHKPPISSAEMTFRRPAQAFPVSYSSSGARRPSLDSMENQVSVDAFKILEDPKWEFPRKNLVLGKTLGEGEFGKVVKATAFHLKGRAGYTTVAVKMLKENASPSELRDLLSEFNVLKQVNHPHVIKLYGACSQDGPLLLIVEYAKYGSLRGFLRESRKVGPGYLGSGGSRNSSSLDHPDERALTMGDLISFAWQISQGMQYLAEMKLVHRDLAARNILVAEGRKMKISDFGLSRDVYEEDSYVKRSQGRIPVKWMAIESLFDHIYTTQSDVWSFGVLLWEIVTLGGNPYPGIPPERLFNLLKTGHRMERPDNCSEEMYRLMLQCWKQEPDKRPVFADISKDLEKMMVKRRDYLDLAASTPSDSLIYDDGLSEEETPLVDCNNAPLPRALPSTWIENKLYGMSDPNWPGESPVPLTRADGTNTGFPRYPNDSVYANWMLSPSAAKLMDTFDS
Measured property: IC50

Tell me its IC50 on Proto-oncogene tyrosine-protein kinase receptor Ret (Homo sapiens, UniProt P07949): "CNC(=O)Nc1ccc2c(c1)CC[C@@]21OC(=O)N(CC(=O)N(Cc2ccc(F)cc2)[C@@H](C)C(F)(F)F)C1=O"
> 10 µM

* * *

test system: HCC1806; experiment: Antiproliferative activity against human HCC1806 cells assessed as inhibition of cell viability incubated for 3 to 5 days by Celltiter-Glo luminescent assay; assay type: functional, cell-based
Measured property: pEC50
Field pEC50 (float): negative decimal logarithm of the concentration in molar.

Specify measured pEC50 for CNC(=O)Nc1ccc2c(c1)CC[C@@]21OC(=O)N(CC(=O)N(Cc2ccc(F)cc2)[C@@H](C)C(F)(F)F)C1=O [A-485] .
5.53
